Each entry below carries its reported MIC.
test system: Pseudomonas aeruginosa; assay: Antibacterial activity against Pseudomonas aeruginosa FB in MHB medium assessed as bacterial growth inhibition by CLSI based broth microdilution method; format: functional

[
  {
    "smi": "Cc1cc(=O)c(O)c(CNC(=O)CCC(=O)N2CCN(c3cc4c(cc3F)c(=O)c(C(=O)O)cn4C3CC3)CC2)n1C",
    "unit.descriptor": "µM",
    "qual": "=",
    "MIC": 1.72
  },
  {
    "smi": "Cc1cc(=O)c(O)c(CNC(=O)CCC(N)(CCC(=O)NCc2c(O)c(=O)cc(C)n2C)CCC(=O)NCc2c(O)c(=O)cc(C)n2C)n1C",
    "unit.descriptor": "µM",
    "qual": ">",
    "MIC": 200
  },
  {
    "smi": "Cc1cc(=O)c(O)c(CNC(=O)CCC(CCC(=O)NCc2c(O)c(=O)cc(C)n2C)(CCC(=O)NCc2c(O)c(=O)cc(C)n2C)NC(=O)CCC(=O)N2CCN(c3cc4c(cc3F)c(=O)c(C(=O)O)cn4C3CC3)CC2)n1C",
    "unit.descriptor": "µM",
    "qual": "=",
    "MIC": 28.8
  },
  {
    "smi": "O=C(CCC(=O)N1CCN(c2cc3c(cc2F)c(=O)c(C(=O)O)cn3C2CC2)CC1)NCc1ccccc1",
    "unit.descriptor": "µM",
    "qual": ">",
    "MIC": 200
  },
  {
    "smi": "Cc1cc(=O)c(O)c(CNC(=O)CCCCC(=O)N2CCN(c3cc4c(cc3F)c(=O)c(C(=O)O)cn4C3CC3)CC2)n1C",
    "unit.descriptor": "µM",
    "qual": "=",
    "MIC": 3.28
  },
  {
    "smi": "Cn1cc(O)c(=O)cc1CNC(=O)CCC(=O)N1CCN(c2cc3c(cc2F)c(=O)c(C(=O)O)cn3C2CC2)CC1",
    "unit.descriptor": "µM",
    "qual": "=",
    "MIC": 1.76
  }
]

====

system: Pseudomonas aeruginosa; experiment: Antibiofilm activity against Pseudomonas aeruginosa PAO1 in ABTGC medium assessed as biofilm biomass at MIC incubated for 24 hrs by crystal violet staining based assay relative to control; type: functional
Each entry below carries its reported Activity.
measurement.label: Activity (%)

[
  {
    "smi": "Cc1cc(=O)c(O)c(CNC(=O)CCC(N)(CCC(=O)NCc2c(O)c(=O)cc(C)n2C)CCC(=O)NCc2c(O)c(=O)cc(C)n2C)n1C",
    "measured.result": 315.1
  },
  {
    "smi": "Cc1cc(=O)c(O)c(CNC(=O)CCCC(=O)N2CCN(c3cc4c(cc3F)c(=O)c(C(=O)O)cn4C3CC3)CC2)n1C",
    "measured.result": 39.5
  },
  {
    "smi": "Cc1cc(=O)c(O)c(CNC(=O)CCC(=O)N2CCN(c3cc4c(cc3F)c(=O)c(C(=O)O)cn4C3CC3)CC2)n1C",
    "measured.result": 39
  },
  {
    "smi": "Cn1cc(O)c(=O)cc1Cn1cc(CCC(=O)N2CCN(c3cc4c(cc3F)c(=O)c(C(=O)O)cn4C3CC3)CC2)nn1",
    "measured.result": 52.1
  },
  {
    "smi": "Cc1cc(=O)c(O)c(CNC(=O)CCCCCCC(=O)N2CCN(c3cc4c(cc3F)c(=O)c(C(=O)O)cn4C3CC3)CC2)n1C",
    "measured.result": 99.9
  },
  {
    "smi": "Cn1cc(O)c(=O)cc1CNC(=O)CCC(=O)N1CCN(c2cc3c(cc2F)c(=O)c(C(=O)O)cn3C2CC2)CC1",
    "measured.result": 55.3
  },
  {
    "smi": "Cn1cc(O)c(=O)cc1CNC(=O)CCCC(=O)N1CCN(c2cc3c(cc2F)c(=O)c(C(=O)O)cn3C2CC2)CC1",
    "measured.result": 75.3
  }
]

====

tested on: Pseudomonas aeruginosa; experiment: Antibiofilm activity against Pseudomonas aeruginosa PAO1 in ABTGC medium assessed as biofilm biomass at 1/4 times MIC incubated for 24 hrs by crystal violet staining based assay relative to control; format: functional
measurement.label: Activity (%)

[
  {
    "smi": "Cc1cc(=O)c(O)cn1CCCn1cc(CCC(=O)N2CCN(c3cc4c(cc3F)c(=O)c(C(=O)O)cn4C3CC3)CC2)nn1",
    "measurement.label": "Activity",
    "measured.result": 97.6
  },
  {
    "smi": "O=C(CCC(=O)N1CCN(c2cc3c(cc2F)c(=O)c(C(=O)O)cn3C2CC2)CC1)NCc1cc(=O)c(O)c[nH]1",
    "measurement.label": "Activity",
    "measured.result": 19.9
  },
  {
    "smi": "Cn1cc(O)c(=O)cc1Cn1cc(CCC(=O)N2CCN(c3cc4c(cc3F)c(=O)c(C(=O)O)cn4C3CC3)CC2)nn1",
    "measurement.label": "Activity",
    "measured.result": 99.4
  },
  {
    "smi": "O=C(CCC(=O)N1CCN(c2cc3c(cc2F)c(=O)c(C(=O)O)cn3C2CC2)CC1)NCc1cc(=O)c(O)cn1O",
    "measurement.label": "Activity",
    "measured.result": 48.9
  },
  {
    "smi": "Cc1cc(=O)c(O)c(CNC(=O)CCC(N)(CCC(=O)NCc2c(O)c(=O)cc(C)n2C)CCC(=O)NCc2c(O)c(=O)cc(C)n2C)n1C",
    "measurement.label": "Activity",
    "measured.result": 99.8
  },
  {
    "smi": "Cc1cc(=O)c(O)c(CNC(=O)CCCC(=O)N2CCN(c3cc4c(cc3F)c(=O)c(C(=O)O)cn4C3CC3)CC2)n1C",
    "measurement.label": "Activity",
    "measured.result": 84.1
  },
  {
    "smi": "Cc1cc(=O)c(O)cn1CCCNC(=O)CCC(=O)N1CCN(c2cc3c(cc2F)c(=O)c(C(=O)O)cn3C2CC2)CC1",
    "measurement.label": "Activity",
    "measured.result": 116.3
  }
]

====

system: Pseudomonas aeruginosa; experiment: Antibacterial activity against Pseudomonas aeruginosa FB in MHB medium assessed as bacterial growth inhibition by CLSI based broth microdilution method; assay type: functional
Each entry below carries its reported log10 MIC.
measurement.label: log10 MIC (log10 of the value in µM)

[
  {
    "smi": "Cc1cc(=O)c(O)c(CNC(=O)CCCC(=O)N2CCN(c3cc4c(cc3F)c(=O)c(C(=O)O)cn4C3CC3)CC2)n1C",
    "log10 MIC": 1.13
  },
  {
    "smi": "Cc1cc(=O)c(O)cn1CCCn1cc(CCC(=O)N2CCN(c3cc4c(cc3F)c(=O)c(C(=O)O)cn4C3CC3)CC2)nn1",
    "log10 MIC": 2.01
  },
  {
    "smi": "O=C(CCC(=O)N1CCN(c2cc3c(cc2F)c(=O)c(C(=O)O)cn3C2CC2)CC1)NCc1cc(=O)c(O)cn1O",
    "log10 MIC": 0.85
  },
  {
    "smi": "Cc1cc(=O)c(O)c(CNC(=O)CCC(CCC(=O)NCc2c(O)c(=O)cc(C)n2C)(CCC(=O)NCc2c(O)c(=O)cc(C)n2C)NC(=O)CCCC(=O)N2CCN(c3cc4c(cc3F)c(=O)c(C(=O)O)cn4C3CC3)CC2)n1C",
    "log10 MIC": 0.55
  },
  {
    "smi": "Cn1cc(O)c(=O)cc1CNC(=O)CCCCC(=O)N1CCN(c2cc3c(cc2F)c(=O)c(C(=O)O)cn3C2CC2)CC1",
    "log10 MIC": 0.53
  },
  {
    "smi": "Cc1cc(=O)c(O)c(CNC(=O)CCC(CCC(=O)NCc2c(O)c(=O)cc(C)n2C)(CCC(=O)NCc2c(O)c(=O)cc(C)n2C)NC(=O)CCCCC(=O)N2CCN(c3cc4c(cc3F)c(=O)c(C(=O)O)cn4C3CC3)CC2)n1C",
    "log10 MIC": 1.15
  }
]

====

system: Pseudomonas aeruginosa; assay: Antibacterial activity against Pseudomonas aeruginosa PAO1 in MHB medium assessed as bacterial growth inhibition by CLSI based broth microdilution method; assay type: functional
Each entry below carries its reported MIC.

[
  {
    "smi": "Cn1cc(O)c(=O)cc1CNC(=O)CCCCC(=O)N1CCN(c2cc3c(cc2F)c(=O)c(C(=O)O)cn3C2CC2)CC1",
    "unit.descriptor": "µM",
    "MIC": 0.84
  },
  {
    "smi": "Cc1cc(=O)c(O)cn1CCCNC(=O)CCC(=O)N1CCN(c2cc3c(cc2F)c(=O)c(C(=O)O)cn3C2CC2)CC1",
    "unit.descriptor": "µM",
    "MIC": 3.36
  },
  {
    "smi": "Cn1cc(O)c(=O)cc1Cn1cc(CCC(=O)N2CCN(c3cc4c(cc3F)c(=O)c(C(=O)O)cn4C3CC3)CC2)nn1",
    "unit.descriptor": "µM",
    "MIC": 27.1
  },
  {
    "smi": "Cc1cc(=O)c(O)c(CNC(=O)CCC(=O)N2CCN(c3cc4c(cc3F)c(=O)c(C(=O)O)cn4C3CC3)CC2)n1C",
    "unit.descriptor": "µM",
    "MIC": 0.43
  }
]
